Taken from ChEMBL document CHEMBL1201862.

System: LXFL 529
procedure-text: NCI tumour cell line growth inhibition, 48 h
Active and inactive are the calls of the source. Cut-off read from the data, not from the text of the source: active = GI50 up to about 1.1 µM and inactive = higher.
Would you mind answering with one of these outcomes? label 1 for active, label 0 for inactive

Please review the entries below; each comes with its answer.
FC(F)(F)C12C34C=CC5(CCC6(C=CC1(CC3)O6)C52C(F)(F)F)O4 (stereo unspecified) ... label 0
COc1cc2ccc3c4cc(OC)c(OCc5ccccc5)cc4cnc3c2cc1OC ... label 0
O=S1(=O)C[C@@H](O)[C@H](O)CS1 ... label 0

# lookup: test call for Cc1ccc(S(=O)(=O)NC(C)C(=O)O)cc1 (stereo unspecified)
label 0

====

Let's go through some recorded log10(GI50) values for HCT-15 together.
Recorded GI50 (log10, µM)

CCSc1c(C)c2c(n(Cc3ccc(OC)cc3)c1=O)Cc1ccccc1C2 ... 0.66
N/N=c1\[nH]c2ccccc2o1 ... 1.89
COC(=O)C1=C(C)NC(C)=C(C(=O)OC)C1c1ccc(/[N+]([O-])=C/c2ccccc2)cc1 ... 1.63
Nc1nc(-c2ccccc2)c(Cl)c(-c2cc(Cl)ccc2O)n1 ... 1.26
Clc1ccc(C(c2ccc(Cl)cc2)c2cncnc2)cc1 ... 1.29

Note: attention shifts to another entry.
Quick one: log10(GI50) of O=c1[nH]cc(/N=C/c2cc(Cl)ccc2O)c(=O)[nH]1 ?
0.35

====

For each record, write down the corresponding GI50.
System: SF-268
procedure-text: NCI tumour cell line growth inhibition, 48 h
Calls of active or inactive are those of the source. No stated cut-off is given here; in the data, active = GI50 up to about 1.1 µM and inactive = higher.

Check out these entries, answers already filled in.
CCC(=O)Nc1ccc(N2C(=O)C(Cl)C2c2ccc(SC)cc2)cc1 (stereo not drawn) ... 60.3 µM (inactive)
C[C@H]1O[C@@H](c2c(O)ccc3ccccc23)C[C@@H](N(C)C)C1O (stereo partly drawn) ... > 100 µM (inactive)

Quick one: GI50 of C=CCn1c(=O)c(Br)nn(CCOCP(=O)(OCC)OCC)c1=O ?
> 100 µM (inactive)

====

System: T47D
procedure-text: NCI tumour cell line growth inhibition, 48 h
Activity calls are given as the source filed them. No stated cut-off is given here; in the data, active = GI50 up to about 1.1 µM and inactive = higher.
Would you mind answering with one of these outcomes? 1 (active), -1 (inactive)

CC1=NN(C(=O)CC(=O)Nc2ccc(C)cc2)C(=O)C1/N=N/c1ccc(C(=O)O)cc1 (stereo unspecified) ... -1
C=C1C(=O)OC2CC1C(O)C/C(C)=C/CC/C(C)=C/C(O)CC2C (stereo unspecified) ... 1
Cc1ccc(S(=O)(=O)NNC(C[N+](=O)[O-])c2ccccc2)cc1 (stereo unspecified) ... -1
NS(=O)(=O)c1ccc(NNc2c3ccccc3nc3ccccc23)cc1 ... -1
CCCCCCNC(=O)c1cnc(Cl)cn1 ... -1

Kindly consider the entry below.
# lookup: test call for O=C(/C=C/c1ccsc1)c1ccc(Cl)s1
-1

====

Tested on: COLO 205
procedure-text: NCI tumour cell line growth inhibition, 48 h
Active and inactive are the calls of the source. No stated cut-off is given here; in the data, active = GI50 up to about 1.1 µM and inactive = higher.
Would you mind answering with one of these outcomes? active, inactive

# lookup: test call for CC(C)(Oc1ccc(C2C[C@H]2Cl)cc1)C(=O)O (some centres not stated)
inactive

# lookup: test call for C[C@H]1O[C@@H](c2c(O)ccc3ccccc23)C[C@@H](N(C)C)C1O (some centres not stated)
inactive

# lookup: test call for CCC/N=C(/NC(=O)c1ccc(Cl)cc1)SC
inactive

# lookup: test call for COC(=O)/C(C#N)=C1\CCc2ccccc21
inactive

# lookup: test call for CC(C)NC(=O)OCc1c2c(n(C)c1COC(=O)NC(C)C)-c1ccccc1CC2
inactive

# lookup: test call for Cc1ccc(S(=O)(=O)NCCCSCCSCCCN)cc1
inactive

# lookup: test call for CCOC(=O)[C@H]1Nc2ccc(C)cc2C2c3ccccc3CC21 (some centres not stated)
inactive

# lookup: test call for Cc1cc(O)c(C(=O)O)c2c1C(=O)c1c(O)c(OCC(O)C(O)C(O)C(O)CO)c(O)c(O)c1C2=O.NCCNCCO (configuration not stated)
inactive

# lookup: test call for O=C(N/N=C\c1cccc2ccccc12)Nc1ccccc1
inactive

# lookup: test call for CCOC(=O)C1OC(C2(C)OC3(OC4(C=CC3O)OC(C(C)C(=O)C(C)C(O)C(C)CC(C)c3c(Cl)cc(C)c(O)c3C(=O)O)C(C)CC4C)C(C)C2OC)CC1O (configuration not stated)
active

# lookup: test call for ClC(Cl)(Cl)C(N1CCN(c2ccccc2)CC1)N1CCN(c2ccccc2)CC1
inactive

# lookup: test call for COc1cc(OC)c2c(=O)c3cccc(C)c3n(C)c2c1
inactive

# lookup: test call for Nc1ccc(-c2cc(C(=O)Nc3nccs3)nc(S)n2)cc1
inactive

# lookup: test call for Cn1ccc(=NS(=O)(=O)c2ccccc2)cc1
inactive

# lookup: test call for O=S1(=O)C[C@@H](O)[C@H](O)CS1
inactive

# lookup: test call for CCCCc1ccc(Nc2nc3c(ncn3C3OC(COC(C)=O)C(OC(C)=O)C3OC(C)=O)c(=O)[nH]2)cc1 (configuration not stated)
inactive

====

Test system: SF-268
procedure-text: NCI tumour cell line growth inhibition, 48 h
Calls of active or inactive are those of the source. Rule as the data show it: active = GI50 up to about 1.1 µM and inactive = higher.
Would you mind answering with one of these outcomes? active, inactive

Please review the entries below; each comes with its answer.
COc1ccc(OCC(=N/NC(=O)c2ccncc2)/N=C/c2ccncc2)cc1 ... inactive
CCCCCCCCC/C=C/C=C/C(=O)NCC(=O)NC1C(O)C(O)C(Nc2ncnc3[nH]cnc23)OC1C(O)CO (stereo not given) ... active
CCCCn1c(O)nc2c(N)ncnc21 ... inactive
c1cc(CCN2CCCCC2)ccn1 ... inactive
O=c1[nH]cc(/N=C/c2cc(Cl)ccc2O)c(=O)[nH]1 ... inactive

Kindly consider the entry below.
# lookup: test call for CC(=O)OC1CC[C@@]2(C)C(CC(OC3OC(CO)C(O)C(O)C3O)[C@]3(C)C2CCC24CC23CC[C@H]4C(C)CC(O)[C@@H](O)C(C)(C)O)C1(C)C (stereo not given in full)
inactive

====

Tested on: HOP-62
procedure-text: NCI tumour cell line growth inhibition, 48 h
Activity calls are given as the source filed them. Rule as the data show it: active = GI50 up to about 1.1 µM and inactive = higher.
Would you mind answering with one of these outcomes? t for active, f for inactive

c1ccc(Cn2c(-c3ccc(-c4ccccc4)cc3)cc3ccccc32)cc1 ... f
CCCC(=O)NC(Nc1ccc(S(=O)(=O)Nc2nc(C)cc(C)n2)cc1)(C(F)(F)F)C(F)(F)F ... f
COc1cc(/C=C2\CC(C)C/C(=C\c3ccc(O)c(OC)c3)C2=O)ccc1O (configuration not stated) ... f
CCOC(=O)CN.CCOC(=O)Nc1ccc(S(=O)(=O)OC)cc1.CCOC(=O)Nc1ccc(S(=O)(=O)OC)cc1 ... f
O=C1CN=C(c2ccccc2)c2ccncc2N1 ... f

# lookup: test call for Nc1nc(O)c2c(ncn2CCO)n1
f

# lookup: test call for Cc1ccc(-c2n[nH]c(=O)n2NC(=O)c2ccccc2C(=O)O)cc1
f

# lookup: test call for COc1cc(C)c(/C=C/C(=O)N2C(=O)OC[C@@H]2c2ccccc2)c(C)c1
f

# lookup: test call for CC(C)NC(=O)OCc1c2c(n(C)c1COC(=O)NC(C)C)-c1ccccc1CC2
f

# lookup: test call for C#CCNC(=O)NC(CCCCNC(=O)OCc1ccccc1)C(=O)OCc1ccccc1 (configuration not stated)
f

# lookup: test call for COC(=O)C(/C(=N\O)C(=O)Nc1cccc(Cl)c1C)c1cnc2ccccc2n1 (configuration not stated)
f

# lookup: test call for Cc1ccc(NCCCN2CCN(CCCNc3ccc(C)c4sc5ccccc5c(=O)c34)CC2)c2c(=O)c3ccccc3sc12
f

====

Tested on: PC-3
procedure-text: NCI tumour cell line growth inhibition, 48 h
Activity calls are given as the source filed them. Rule as the data show it: active = GI50 up to about 1.1 µM and inactive = higher. Where a SMILES comes first, the peptide text is derived from it. [ ]: non-standard residue; d: D form. The star is where a group is joined. NMeAc5c = CNC1(C(=O)O)CCCC1; Boc = CC(C)(C)OC(=O)*; OBn = c1ccc(CO*)cc1
property-label: GI50

Check out these entries, answers already filled in.
CC1=C(/C=C/C(C)=C/C=C/C(C)=C/C(=O)O)C(C)(C)CCC1 [TRETINOIN] ... 39.6 µM (inactive)
COc1ccc(/C=C2\CN(C)Cc3c2nc(O)c(C#N)c3-c2ccc(OC)cc2)cc1 ... 44.4 µM (inactive)
CC(=O)Oc1c(-c2ccccc2)oc2ccccc12 ... 1.53 µM (inactive)
Cc1ccc(S(=O)(=O)NCCCSCCSCCCN)cc1 ... > 100 µM (inactive)
CN(C(=O)C(Cc1ccccc1)NC(=O)OC(C)(C)C)C1(C(=O)NC(Cc2ccccc2)C(=O)OCc2ccccc2)CCCC1 (stereo not drawn) (Boc-Phe-[NMeAc5c]-Phe-OBn; configuration not given here) ... 28.4 µM (inactive)

Please supply GI50 for each of the following items, keeping them in order.
1. CC(=O)N1C(NN(C)C)CCN1c1ccccc1 (stereo not given)
2. Cc1nc(-c2ccccc2)c(-c2ccccc2)s1

1: > 10 µM (inactive); 2: 14.2 µM (inactive)

Please supply GI50 for each of the following items, keeping them in order.
1. Cc1ccc(S(=O)(=O)C2=C([Si](C)(C)C)C3CC2[C@@H]2C4C=CC(CC4)[C@H]32)cc1 (stereo not given in full)
2. Cc1ccccc1C(=O)NC(O)(C(F)(F)F)C(F)(F)F
3. Oc1ccc(/C=C/c2cccc(/C=C/c3ccc(O)c(O)c3)n2)cc1O

1: 35.3 µM (inactive); 2: 25.5 µM (inactive); 3: 17.5 µM (inactive)
